target: Apelin receptor (Homo sapiens) (UniProt P35414); assay: APJ activation via beta-arrestin recruitment – CHO-K1 cells, PathHunter beta-arrestin, luminescence, primary screen (AID 2520); details: at 20 µM, stronger effect = higher value, 0% DMSO wells, 100% apelin;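 note: 0% = DMSO alone and 100% = apelin-13 at 10 nM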
Sequence (P35414 whole entry, looked up): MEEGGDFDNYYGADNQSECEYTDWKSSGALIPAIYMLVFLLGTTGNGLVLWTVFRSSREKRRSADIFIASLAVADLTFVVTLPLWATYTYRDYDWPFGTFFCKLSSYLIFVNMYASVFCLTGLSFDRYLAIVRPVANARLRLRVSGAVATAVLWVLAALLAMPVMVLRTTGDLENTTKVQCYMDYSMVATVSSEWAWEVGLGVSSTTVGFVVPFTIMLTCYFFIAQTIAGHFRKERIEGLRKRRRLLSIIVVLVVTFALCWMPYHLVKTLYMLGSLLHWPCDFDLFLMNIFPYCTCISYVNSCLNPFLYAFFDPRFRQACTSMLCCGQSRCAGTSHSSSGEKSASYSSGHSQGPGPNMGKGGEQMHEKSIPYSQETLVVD
About 350 (0.11%) of roughly 330,000 compounds were called active. The list comes from a sample in which actives are over-represented; it also holds close analogues and randomly drawn compounds.
quantity: activation (%)
Numeric answer only, unit % assumed.

Consider the worked cases shown below.
>>> valueobserved("O=C(O)Cc1ccc(NC(=O)C2CCCCC2C(=O)O)cc1 (stereo unspecified)")
-3.2
>>> valueobserved("COc1ccc(NC(=O)CSc2nncc(=O)n2N)cc1OC")
-6.25
>>> valueobserved("CCCCC(=O)Nc1cc(C)c2c(=O)oc3ccccc3c2n1")
7.83
>>> valueobserved("O=C(NCCc1ccc(Cl)cc1)C1CCCN1C(=O)NCc1ccccc1 (stereo unspecified)")
0.456
>>> valueobserved("Cc1nn(CC(=O)NC2CCCCC2)c(=O)c2cccn12")
-3.35

QUERY: Using known records, supply activation for CCc1ccc(CN(C)C(=O)CCc2nnc(-c3ccc(-c4ccccc4)cc3)o2)nc1
RESULT: -3.94

QUERY: Specify reported activation for the compound shown: CN(CCC1CCOCC1)Cc1cn[nH]c1-c1ccc(-c2ccccc2)cc1
RESULT: -3.69

###

molecular target: Apelin receptor (Homo sapiens); test: APJ activation via beta-arrestin recruitment – CHO-K1 cells, PathHunter beta-arrestin, luminescence, primary screen (AID 2520); settings: at 20 µM, stronger effect = higher value, 0% DMSO wells, 100% apelin;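 note: 0% = DMSO alone and 100% = apelin-13 at 10 nM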
About 350 (0.11%) of roughly 330,000 compounds were called active. Shown is part of a subset that was picked to be rich in actives.
// values below are reported activation
Numbers only; they are read as %.

See these solved cases before continuing.
>>> valueobserved("O=c1ccc(-c2ccc(S(=O)(=O)Nc3ccccc3)o2)n[nH]1")
2.43
>>> valueobserved("CCCCc1cc(=O)oc2c(C)c(OCC(=O)N3CCC(C(N)=O)CC3)ccc12")
-4.2
>>> valueobserved("COc1ccc(C)cc1NC(=O)CSc1nnc2ccc(-c3ccccn3)nn12")
1.64
>>> valueobserved("COc1cc2c(cc1OC)C(=O)NCC(C)(C)O2")
-0.328
>>> valueobserved("Cc1ccc(S(=O)(=O)N(C)C)cc1NC(=O)/C=C/c1cccs1")
2.48
>>> valueobserved("CCC(C)(C)C1CCC(=NNC(=O)c2ccc(Br)o2)CC1 (stereo not drawn)")
19.8
>>> valueobserved("Cc1nn(Cc2ccccc2)c(C)c1C(=O)NCCCN1CCCC1=O")
-4.22
>>> valueobserved("Cc1ccc(-n2nc(N)c3c(=O)oc(N(C)C)nc32)cc1")
-1.59

QUERY: Complete the entry with activation for O=C(CSc1nc(Nc2ccccc2)nc(N2CCOCC2)n1)Nc1cc(Cl)ccc1O
RESULT: 40.8

QUERY: # return recorded activation for input O=C(CCCn1c(=O)c2sccc2n(CC(=O)NCC2CCCO2)c1=O)NCc1ccco1 (stereo not drawn)
RESULT: -4.48

QUERY: # return recorded activation for entry NC(=O)CN1CCCC1c1ccc2c(c1)OCCO2 (stereo not drawn)
RESULT: 0.777

###

target: Apelin receptor (Homo sapiens); test: APJ activation via beta-arrestin recruitment – CHO-K1 cells, PathHunter beta-arrestin, luminescence, primary screen (AID 2520); settings: at 20 µM, stronger effect = higher value, 0% DMSO wells, 100% apelin;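 note: 0% = DMSO alone and 100% = apelin-13 at 10 nM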
Among all 330,000 compounds or so, about 350 (0.11%) were called active. Shown is part of a subset that was picked to be rich in actives.
quantity: activation (%)
Your answer should be a plain number; it is taken to be in %.

Some solved cases for reference:
>>> valueobserved("Cc1cccc2cc(CN(Cc3cccs3)C(=S)NCc3ccco3)c(=O)[nH]c12")
-1.92
>>> valueobserved("COCCCNC(=S)N(CCN(C)C)Cc1cc2cc3c(cc2[nH]c1=O)OCCO3")
-4.21
>>> valueobserved("Cc1cc(NS(=O)(=O)c2ccc(NC(=O)c3cccnc3)cc2)nc(C)n1")
1.41

QUERY: Return activation (reported value) for this compound: Cc1nnc(SCC(=O)NC(=O)NC2CCCC2)n1N
RESULT: -4.56

QUERY: Look up activation of CCN1C(=O)c2cccc3c(S(=O)(=O)Nc4ccccc4O)ccc1c23 and report it.
RESULT: 2.45

QUERY: Given CC(C)(C)n1nnc(CCc2nnn(C(C)(C)C)n2)n1 , respond with its activation.
RESULT: -4.6

###

molecular target: Apelin receptor (Homo sapiens) (UniProt P35414); experiment: APJ activation via beta-arrestin recruitment – CHO-K1 cells, PathHunter beta-arrestin, luminescence, primary screen (AID 2520); details: at 20 µM, stronger effect = higher value, 0% DMSO wells, 100% apelin;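 note: 0% = DMSO alone and 100% = apelin-13 at 10 nM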
The whole screen tested about 330,000 compounds, of which about 350 (0.11%) were called active. This is one part of a sample in which actives are shown more often than they occur.
Below: a set of entries, each annotated with reported activation.
Number only, in %; omit the unit.

Sample answers from the record:
>>> valueobserved("C=CCOc1ccccc1NC(=O)CN1C(=O)CNC1=O")
-2.49
>>> valueobserved("CN(C)S(=O)(=O)c1ccc(N/C=C(\\[N+](=O)[O-])S(=O)(=O)c2ccccc2)cc1")
-4.82

Field: next compound
QUERY: Provide activation, system Apelin receptor (Homo sapiens) (UniProt P35414), entry CC(=O)N1CCCc2cc(S(=O)(=O)N3CCCC(C(=O)NCc4ccc(Cl)cc4)C3)ccc21 (stereo unspecified)
RESULT: -0.0955

###

target: Apelin receptor (Homo sapiens); assay: APJ activation via beta-arrestin recruitment – CHO-K1 cells, PathHunter beta-arrestin, luminescence, primary screen (AID 2520); settings: at 20 µM, stronger effect = higher value, 0% DMSO wells, 100% apelin;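 note: 0% = DMSO alone and 100% = apelin-13 at 10 nM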
The whole screen tested about 330,000 compounds, of which about 350 (0.11%) were called active. What follows is part of a selection rich in actives, with near analogues and random picks from the rest.
quantity: activation (%)
API: value field is a number in %; no unit string.

Example compounds with recorded activation:
>>> valueobserved("CCOc1cc2[nH]c(=O)n(Cc3ccc(C(=O)NCCCN4CCCC4=O)cc3)c(=O)c2cc1OCC")
3.97
>>> valueobserved("COc1ccccc1Oc1ccc(N2CC(C(=O)OCC(=O)c3ccc(F)cc3)CC2=O)cc1 (stereo unspecified)")
-2.79
>>> valueobserved("CCOc1cc2[nH]c(=S)n(CCN3CCCCC3C)c(=O)c2cc1OCC (stereo unspecified)")
7.97

Could you now consider this next compound?
QUERY: Identify the reported activation for the following entry. COc1cc(NC(=O)COC(=O)c2cc(S(=O)(=O)N3CCOCC3)ccc2F)cc(OC)c1
RESULT: -0.441

###

biological target: Apelin receptor (Homo sapiens) (UniProt P35414); assay: APJ activation via beta-arrestin recruitment – CHO-K1 cells, PathHunter beta-arrestin, luminescence, primary screen (AID 2520); conditions: at 20 µM, stronger effect = higher value, 0% DMSO wells, 100% apelin;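 note: 0% = DMSO alone and 100% = apelin-13 at 10 nM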
The whole screen tested about 330,000 compounds, of which about 350 (0.11%) were called active. This excerpt belongs to a sample that is enriched for actives.
quantity: activation

Recorded activation, per entry:
>>> valueobserved("CCCN(c1ccc(C(C)C)cc1)S(=O)(=O)c1c(C)[nH]c(=O)[nH]c1=O")
"-2.76% (inactive)"
>>> valueobserved("Cc1ccc(O/C=C2\\OC(=O)c3ccccc32)cc1")
"-1.88% (inactive)"
>>> valueobserved("O=C1CCC(=O)N1c1ccc(NCCc2ccccc2F)c([N+](=O)[O-])c1")
"-3.51% (inactive)"
>>> valueobserved("Cc1cc(C)nc(SCc2nnc(SCC(=O)Nc3ncc(C)s3)n2Cc2ccco2)n1")
"-3.79% (inactive)"

Next molecule, activation to be filled in.
QUERY: Name the recorded activation of the molecule listed here: COC(=O)c1ccc(C)c(NC(=O)C2CC(=O)N(C3CCCC(C)C3C)C2)c1 (stereo not given)
RESULT: -2.02% (inactive)

###

biological target: Apelin receptor (Homo sapiens) (UniProt P35414); assay: APJ activation via beta-arrestin recruitment – CHO-K1 cells, PathHunter beta-arrestin, luminescence, primary screen (AID 2520); conditions: at 20 µM, stronger effect = higher value, 0% DMSO wells, 100% apelin;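 note: 0% = DMSO alone and 100% = apelin-13 at 10 nM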
Out of some 330,000 compounds screened, about 350 (0.11%) were called active. This is one part of a sample in which actives are shown more often than they occur.
quantity: activation

>>> valueobserved("Cc1ccc(NS(=O)(=O)c2c(C)[nH]c(C)c2C(=O)N2CCCCC2)c(C)c1")
"-0.00146% (inactive)"

QUERY: Respond only with activation recorded for Cc1ccccc1-n1nnc2c(=O)oc3ccccc3c21
RESULT: 10.2% (active)

QUERY: Check the records and state activation for O=C1NC(=Nc2ccc(Cl)cc2)SC1Cc1cccc(Cl)c1Cl (centres undefined)
RESULT: -3.58% (inactive)

QUERY: Using known records, supply activation for CC1CCN(C(=O)c2ccc(S(=O)(=O)Cc3cc(F)ccc3F)c([N+](=O)[O-])c2)CC1
RESULT: 1.51% (inactive)

The origin of these recorded values is PubChem BioAssay AID2520.
